- tgt: recombinant human TYRO3 (Homo sapiens, UniProt Q06418)
- Sequence (Q06418 41-890): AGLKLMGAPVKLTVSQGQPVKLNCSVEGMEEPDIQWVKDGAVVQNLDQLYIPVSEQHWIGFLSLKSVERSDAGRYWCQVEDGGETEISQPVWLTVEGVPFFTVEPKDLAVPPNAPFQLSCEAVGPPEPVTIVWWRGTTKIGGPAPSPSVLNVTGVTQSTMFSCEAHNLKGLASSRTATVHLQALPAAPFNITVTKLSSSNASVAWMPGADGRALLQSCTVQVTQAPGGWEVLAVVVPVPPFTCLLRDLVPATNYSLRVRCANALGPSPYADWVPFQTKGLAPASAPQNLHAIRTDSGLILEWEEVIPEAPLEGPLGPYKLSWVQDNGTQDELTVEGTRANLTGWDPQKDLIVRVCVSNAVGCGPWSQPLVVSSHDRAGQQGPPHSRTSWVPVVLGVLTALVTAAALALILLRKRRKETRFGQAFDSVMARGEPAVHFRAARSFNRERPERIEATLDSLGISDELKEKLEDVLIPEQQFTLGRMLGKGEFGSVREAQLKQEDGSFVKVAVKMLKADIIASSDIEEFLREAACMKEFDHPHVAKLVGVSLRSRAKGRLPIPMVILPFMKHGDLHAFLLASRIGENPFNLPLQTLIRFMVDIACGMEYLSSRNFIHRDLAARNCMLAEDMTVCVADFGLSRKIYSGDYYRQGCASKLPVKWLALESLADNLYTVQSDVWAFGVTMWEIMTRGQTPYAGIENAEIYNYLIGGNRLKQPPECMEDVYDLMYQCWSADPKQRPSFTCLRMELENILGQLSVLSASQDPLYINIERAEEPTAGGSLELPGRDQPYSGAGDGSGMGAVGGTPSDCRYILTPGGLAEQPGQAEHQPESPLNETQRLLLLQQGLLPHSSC
- assay-name: Biochemical potency, HTRF KinEASE-TK kinase assay
- study-conditions: 1 nM TYRO3, 700 μM ATP
pIC50: −log10 of the molar value.
property-label: pIC50

Please supply pIC50 for each of the following items, keeping them in order.
1. c1cnc(-c2ccc(-c3n[nH]c4ncc(-c5ccc6c(c5)CC[C@@H](N5C7COCC5C7)CC6)cc34)cc2)c(O[C@@H]2CCOC2)c1 [Example 104]
2. Clc1cccnc1-c1ccc(-c2c[nH]c3ncc(-c4ccc5c(c4)CC[C@@H](N4C6COCC4C6)CC5)cc23)cc1 [Example 43]
3. O=C1OCCN1c1cccnc1-c1ccc(-c2n[nH]c3ncc(-c4ccc5c(c4)CC[C@@H](N4C6COCC4C6)CC5)cc23)cc1 [Example 121]
4. FC(F)Oc1cccnc1-c1ccc(-c2n[nH]c3ncc(-c4ccc5c(c4)CC[C@@H](N4C6COCC4C6)CC5)cc23)cc1 [Example 99]
5. c1cnc(-c2ccc(-c3c[nH]c4ncc(-c5ccc6c(c5)CC[C@@H](N5C7COCC5C7)CC6)cc34)cc2)c(N2CCOCC2)c1 [Example 5]

1. 6.00 to 7.00
2. 6.00 to 7.00
3. > 7.00
4. 6.00 to 7.00
5. > 7.00

Each recorded value in this set is attributed to patent US12195482B1.
